Assay: Pharmacokinetic parameters in vivo, dog
Parameters: species or system Beagle Dogs
Settings: Beagle, plasma; Dog, oral gavage 5 mg/kg solution vs IV 1 mg/kg
Assay endpoint: bioavailability (%)
Give the quantity in %, number only.

Notebook: Cn1nc(NS(C)(=O)=O)c2c(Cl)ccc(-n3c([C@H](Cc4cc(F)cc(F)c4)NC(=O)Cn4nc(C(F)F)c5c4C(F)(F)[C@@H]4C[C@H]54)nc4nc(OCCC(C)(F)F)ccc4c3=O)c21 (atropisomer, axis not shown; (P)) , bioavailability read as 34.6

* * *

Assay: Pharmacokinetic parameters in vivo, rat
Design: species or system Wistar Han Rats
Conditions: Wistar Han, plasma, IV 1 mg/kg
Assay endpoint: half-life (h)
Give the quantity in h, number only.

Notebook: Cn1nc(NS(C)(=O)=O)c2c(Cl)ccc(-n3c([C@H](Cc4cc(F)cc(F)c4)NC(=O)Cn4nc(C(F)F)c5c4C(F)(F)[C@@H]4C[C@H]54)nc4nc(OCCC(C)(F)F)ccc4c3=O)c21 (atropisomer, axis not shown; (P)) , half-life read as 10.2

Origin of the recorded values: patent US20220105096A1
